- Tested on: non-transformed cells
- test protocol: Test 9: TRPA1 activity test, non-transformed cells
- Type: cell-based, human
- run parameters: maximum values, average ± standard deviation; concentration after adding per Table 7 (10.2-28.2 ppm)
value kind: Δ RFU in non-transformed cells
Answer with a bare number; do not write a unit.

Query: Give the measured Δ RFU in non-transformed cells of CCCCCC(=O)OCC [Example 22, Ethyl caproate] .
Response: 0.2

Query: Moving on to the next compound: CCCCCCCC(=O)OCC [Example 28, Ethyl caprylate]
Response: 0.1

Query: Moving on to the next compound: CCCCCC(=O)OCCCC [Example 24, Butyl caproate]
Response: 0.1

Query: Moving on to the next compound: CCCCCC(=O)OCCC [Example 23, Propyl caproate]
Response: 0.2

Query: Moving on to the next compound: CCC(C)COC(C)=O (stereo not drawn) [Example 15, 2-Methylbutyl acetate]
Response: 0.2

Query: Moving on to the next compound: CCCCCCCC(=O)OCCC(C)C [Comparative Example 13, Isoamyl caprylate, reference compound]
Response: 0.3

***
Query: Give the measured Δ RFU in non-transformed cells of CCOC(=O)CCC(C)C [Example 20, Ethyl 4-methylvalerate] .
Response: 0.1

Query: Moving on to the next compound: CCC(=O)OCCC(C)C [Example 17, Isoamyl propionate]
Response: 0.1

Query: Moving on to the next compound: CCCCCOC(C)=O [Example 14, Pentyl acetate]
Response: 0.1

====

- System: non-transformed cells
- test protocol: Test 9: TRPA1 activity test, non-transformed cells
- Type: cell-based, human
- run parameters: maximum values, average ± standard deviation; concentration after adding per Table 7 (10.2-28.2 ppm)
- Experimental: Also for HEK293T cells without transfer of the TRPA1 gene (hereinafter, also referred to as "non-transformed cells"), as a reference, 50 µL of the test solution of Example 9 and 50 µL of the test solution of Comparative Example 6 were added with the same method as performed for the cells with forced expression of TRPA1, and ΔRFU was determined. […]
value kind: Δ RFU in non-transformed cells
Answer with a bare number; do not write a unit.

Illustrative cases are given below, each with its answer.
Query: Give the measured Δ RFU in non-transformed cells of CCCC(=O)OCCC(C)C [Example 18, Isoamyl butyrate] .
Response: 0.1

Query: Moving on to the next compound: CCCCC(=O)OCC [Example 19, Ethyl valerate]
Response: 0.1

Query: Moving on to the next compound: CCOC(C)=O [Comparative Example 10, Ethyl acetate, reference compound]
Response: 0.3

// moving on: another record for Δ RFU in non-transformed cells
Query: Give the measured Δ RFU in non-transformed cells of CCCOC(C)=O [Comparative Example 11, Propyl acetate, reference compound] .
Response: 0.3

====

- study system: TRPA1 (Homo sapiens, UniProt O75762)
- Construct: expressed in transfected cells; host or cells: HEK293T cells, transient transfection with Lipofectamine 2000
- Sequence (O75762 whole entry): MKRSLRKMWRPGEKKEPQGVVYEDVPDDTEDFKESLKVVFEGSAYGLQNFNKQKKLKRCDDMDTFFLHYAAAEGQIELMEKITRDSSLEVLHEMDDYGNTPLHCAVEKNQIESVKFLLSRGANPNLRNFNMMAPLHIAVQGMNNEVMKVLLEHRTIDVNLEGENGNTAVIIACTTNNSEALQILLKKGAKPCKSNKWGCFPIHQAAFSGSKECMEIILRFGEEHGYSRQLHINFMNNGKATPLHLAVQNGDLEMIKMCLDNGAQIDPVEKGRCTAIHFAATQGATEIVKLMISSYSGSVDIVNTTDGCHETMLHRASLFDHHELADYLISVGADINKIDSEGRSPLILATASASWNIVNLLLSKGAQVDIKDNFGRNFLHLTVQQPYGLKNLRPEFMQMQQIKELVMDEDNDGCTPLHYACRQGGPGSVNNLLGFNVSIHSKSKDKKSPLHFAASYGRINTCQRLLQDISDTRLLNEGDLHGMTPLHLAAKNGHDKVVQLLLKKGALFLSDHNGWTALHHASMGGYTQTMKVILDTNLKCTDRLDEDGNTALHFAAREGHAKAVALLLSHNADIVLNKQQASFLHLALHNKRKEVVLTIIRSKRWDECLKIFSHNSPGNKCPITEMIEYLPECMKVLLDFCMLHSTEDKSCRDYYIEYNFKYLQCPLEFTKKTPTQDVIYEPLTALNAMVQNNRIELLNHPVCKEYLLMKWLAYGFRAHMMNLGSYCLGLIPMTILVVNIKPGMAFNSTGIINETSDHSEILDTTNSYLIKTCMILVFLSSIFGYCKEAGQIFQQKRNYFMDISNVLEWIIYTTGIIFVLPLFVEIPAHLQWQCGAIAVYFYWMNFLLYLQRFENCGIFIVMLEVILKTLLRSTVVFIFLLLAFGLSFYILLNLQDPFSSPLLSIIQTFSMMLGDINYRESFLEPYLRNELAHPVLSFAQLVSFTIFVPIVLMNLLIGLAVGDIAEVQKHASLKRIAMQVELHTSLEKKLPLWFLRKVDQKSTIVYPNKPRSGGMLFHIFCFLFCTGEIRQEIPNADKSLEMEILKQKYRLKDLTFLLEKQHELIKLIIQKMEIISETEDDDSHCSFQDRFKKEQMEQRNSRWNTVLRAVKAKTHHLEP
- test protocol: Test 9: TRPA1 activity test, cells with forced expression of TRPA1
- Assay type: cell-based
- run parameters: ratio of maximum ΔRFU values; concentration after adding per Table 7
- Method: In the present test, first, human embryonic HEK293T cells were first suspended in DMEM medium to which penicillin-streptomycin (manufactured by Thermo Fisher Scientific, Inc.) and fetal bovine serum (manufactured by Sigma-Aldrich Co. LLC) were added to reach concentrations of 100 Unit/mL, 100 µg/mL, and 10%, respectively, seeded in a 96-well plate at a volume of 100 µL/well, and cultured under conditions of 5% CO2 and 37°C until a cell density reached 70 to 90%. […]
value kind: Δ RFU in cells with forced expression of TRPA1 / Δ RFU in non-transformed cells
Answer with a bare number; do not write a unit.

Illustrative cases are given below, each with its answer.
Query: Give the measured Δ RFU in cells with forced expression of TRPA1 / Δ RFU in non-transformed cells of CCC(=O)OCCC(C)C [Example 17, Isoamyl propionate] .
Response: 12.4

Query: Moving on to the next compound: CCCCCOC(=O)CCCCC [Example 26, Pentyl caproate]
Response: 12.8

Query: Moving on to the next compound: CCCCCC(=O)OC [Example 21, Methyl caproate]
Response: 5.4

***
Query: Give the measured Δ RFU in cells with forced expression of TRPA1 / Δ RFU in non-transformed cells of CCCCC(=O)OCC [Example 19, Ethyl valerate] .
Response: 5.6

Query: Moving on to the next compound: CCCCCCCOC(C)=O [Example 16, Heptyl acetate]
Response: 127.8

Query: Moving on to the next compound: CC(=O)OCCC(C)C [Example 13, Isoamyl acetate]
Response: 3.4
